- TARGET: KIT (L576P) (Homo sapiens, UniProt P10721, L576P)
- Construct: purchased Eurofins DiscoverX Corporation
- Sequence (P10721 26-976 L576P): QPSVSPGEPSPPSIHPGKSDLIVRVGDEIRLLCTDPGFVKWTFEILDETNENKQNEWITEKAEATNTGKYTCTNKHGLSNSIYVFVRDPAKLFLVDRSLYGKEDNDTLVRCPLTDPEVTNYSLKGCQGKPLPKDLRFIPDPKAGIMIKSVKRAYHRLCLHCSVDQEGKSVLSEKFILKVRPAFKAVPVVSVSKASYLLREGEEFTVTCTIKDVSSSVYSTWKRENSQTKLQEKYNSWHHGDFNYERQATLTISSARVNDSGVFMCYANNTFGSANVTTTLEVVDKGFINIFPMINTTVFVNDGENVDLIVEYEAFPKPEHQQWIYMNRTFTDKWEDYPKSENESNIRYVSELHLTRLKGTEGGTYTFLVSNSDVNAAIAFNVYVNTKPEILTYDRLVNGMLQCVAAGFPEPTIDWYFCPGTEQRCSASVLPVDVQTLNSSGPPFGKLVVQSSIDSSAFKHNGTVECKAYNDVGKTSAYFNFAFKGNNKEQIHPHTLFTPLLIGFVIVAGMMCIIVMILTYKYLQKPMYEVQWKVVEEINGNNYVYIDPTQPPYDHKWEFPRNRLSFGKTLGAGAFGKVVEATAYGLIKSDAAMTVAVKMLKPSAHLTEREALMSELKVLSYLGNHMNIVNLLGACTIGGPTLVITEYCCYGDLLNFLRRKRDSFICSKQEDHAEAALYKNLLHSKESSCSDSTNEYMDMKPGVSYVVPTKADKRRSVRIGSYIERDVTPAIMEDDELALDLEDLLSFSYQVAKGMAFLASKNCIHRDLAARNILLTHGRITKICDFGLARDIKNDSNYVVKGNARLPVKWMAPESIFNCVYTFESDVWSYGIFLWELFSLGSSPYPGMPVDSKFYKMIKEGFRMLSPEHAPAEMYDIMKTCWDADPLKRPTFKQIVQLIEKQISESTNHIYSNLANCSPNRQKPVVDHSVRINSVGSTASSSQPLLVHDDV
- PROTOCOL NOTES: KINOMEscan competition binding screen, KIT (L576P)
- Protocol: The KINOMEscan™ screening platform (Eurofins DiscoverX Corporation, San Diego, USA) was performed using an active site-directed competition binding assay to quantitatively measure interactions between BK40143, BK40197, BK40195, and BK40196 and more than 450 human kinases and disease relevant mutant variants. […]
REPORTED PROPERTY: inhibition at 10 µM (%)
Write it as a number; the unit % goes unstated.

response.value for COc1cccc(Nc2ccnc3cc(-c4cccc(C)c4)sc23)c1 (field: inhibition at 10 µM) = 91.9

Note to self: inhibition at 10 µM recorded for Cc1cccc(-c2cc3nccc(Nc4ccccc4)c3s2)c1 was 96.5

Per the record, Cc1cccc(-c2cc3nccc(N4CCOCC4)c3s2)c1 has inhibition at 10 µM of 98.2

Looking up Cc1cccc(-c2cc3nccc(Nc4cccc(O)c4)c3s2)c1 , I see its inhibition at 10 µM listed as 99.2

* * *

- TARGET: KIT (D816H) (Homo sapiens, UniProt P10721, D816H)
- Construct: purchased Eurofins DiscoverX Corporation
- Sequence (P10721 26-976 D816H): as the sequence (P10721 26-976 L576P) above, with P551L, D791H counted along it
- PROTOCOL NOTES: KINOMEscan competition binding screen, KIT (D816H)
- EXPERIMENTAL PARAMETERS: read-out: % Ctrl @ 10 μM
Below is a list of entries, each paired with its recorded remaining binding at 10 µM value.
Your answer is read as %, so omit the unit and give the number.

Here's what some known entries look like.
COc1cccc(Nc2ccnc3cc(-c4cccc(C)c4)sc23)c1
6.1
Cc1cccc(-c2cc3nccc(Nc4ccccc4)c3s2)c1
46
Cc1cccc(-c2cc3nccc(N4CCOCC4)c3s2)c1
100

get_value(item= Cc1cccc(-c2cc3nccc(Nc4cccc(O)c4)c3s2)c1 , readout=remaining binding at 10 µM) returns 3.9

* * *

- TARGET: KIT (A829P) (Homo sapiens, UniProt P10721, A829P)
- Construct: purchased Eurofins DiscoverX Corporation
- Sequence (P10721 26-976 A829P): as the sequence (P10721 26-976 L576P) above, with P551L, A804P counted along it
- PROTOCOL NOTES: KINOMEscan competition binding screen, KIT (A829P)
Listed compounds paired with reported inhibition at 10 µM
Hi! Could you send only the number? It should be in %, unit omitted.

Use the examples below as a reference point.
Cc1cccc(-c2cc3nccc(Nc4ccccc4)c3s2)c1
48
Cc1cccc(-c2cc3nccc(Nc4cccc(O)c4)c3s2)c1
79

# compound Cc1cccc(-c2cc3nccc(N4CCOCC4)c3s2)c1 ; its inhibition at 10 µM = 0

What the record says about COc1cccc(Nc2ccnc3cc(-c4cccc(C)c4)sc23)c1 : inhibition at 10 µM is 93.7

* * *

- TARGET: KIT (Homo sapiens)
- Construct: purchased Eurofins DiscoverX Corporation
- Sequence (P10721 26-976): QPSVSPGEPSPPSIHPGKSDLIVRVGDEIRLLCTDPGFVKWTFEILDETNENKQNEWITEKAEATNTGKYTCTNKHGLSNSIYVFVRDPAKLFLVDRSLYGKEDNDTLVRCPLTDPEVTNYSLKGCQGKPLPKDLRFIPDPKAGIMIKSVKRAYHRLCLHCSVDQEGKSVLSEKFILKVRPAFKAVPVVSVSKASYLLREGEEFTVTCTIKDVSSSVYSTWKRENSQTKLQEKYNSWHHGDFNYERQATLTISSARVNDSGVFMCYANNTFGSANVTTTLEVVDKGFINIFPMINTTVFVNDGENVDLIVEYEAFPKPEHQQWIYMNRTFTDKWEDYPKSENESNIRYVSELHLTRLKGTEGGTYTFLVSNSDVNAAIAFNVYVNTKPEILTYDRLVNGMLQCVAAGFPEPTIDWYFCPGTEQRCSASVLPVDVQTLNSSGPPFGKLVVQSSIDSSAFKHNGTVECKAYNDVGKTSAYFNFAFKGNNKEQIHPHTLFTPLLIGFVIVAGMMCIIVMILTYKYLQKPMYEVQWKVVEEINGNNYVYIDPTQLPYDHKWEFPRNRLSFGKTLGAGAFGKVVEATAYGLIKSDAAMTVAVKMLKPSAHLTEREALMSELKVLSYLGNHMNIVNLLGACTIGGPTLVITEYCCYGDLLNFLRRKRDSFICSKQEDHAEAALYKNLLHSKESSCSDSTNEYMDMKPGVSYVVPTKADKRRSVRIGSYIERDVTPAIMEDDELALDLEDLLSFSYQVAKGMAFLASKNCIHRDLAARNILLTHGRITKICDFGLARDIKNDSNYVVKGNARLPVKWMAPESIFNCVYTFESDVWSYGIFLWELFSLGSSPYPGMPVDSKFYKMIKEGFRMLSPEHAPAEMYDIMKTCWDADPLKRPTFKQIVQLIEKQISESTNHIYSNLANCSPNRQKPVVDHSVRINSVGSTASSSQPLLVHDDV
- PROTOCOL NOTES: KINOMEscan competition binding screen, KIT
REPORTED PROPERTY: inhibition at 10 µM

Below, 2 compounds whose answers are already recorded.
COc1cccc(Nc2ccnc3cc(-c4cccc(C)c4)sc23)c1
100%
Cc1cccc(-c2cc3nccc(Nc4ccccc4)c3s2)c1
100%

Input Cc1cccc(-c2cc3nccc(Nc4cccc(O)c4)c3s2)c1 . Output inhibition at 10 µM: 100%

Notebook: Cc1cccc(-c2cc3nccc(N4CCOCC4)c3s2)c1 , inhibition at 10 µM read as 97.7%

* * *

# reported remaining binding at 10 µM; entries follow
- TARGET: KIT (D816V) (Homo sapiens, UniProt P10721, D816V)
- Construct: purchased Eurofins DiscoverX Corporation
- Sequence (P10721 26-976 D816V): as the sequence (P10721 26-976 L576P) above, with P551L, D791V counted along it
- PROTOCOL NOTES: KINOMEscan competition binding screen, KIT (D816V)
- EXPERIMENTAL PARAMETERS: read-out: % Ctrl @ 10 μM
State the answer as a number, implicitly in %.

compound Cc1cccc(-c2cc3nccc(Nc4cccc(O)c4)c3s2)c1 , remaining binding at 10 µM observed: 0.2

Data point: COc1cccc(Nc2ccnc3cc(-c4cccc(C)c4)sc23)c1 ; remaining binding at 10 µM = 1.7

// Cc1cccc(-c2cc3nccc(Nc4ccccc4)c3s2)c1 : remaining binding at 10 µM value = 35

Entry Cc1cccc(-c2cc3nccc(N4CCOCC4)c3s2)c1 ; remaining binding at 10 µM = 67

* * *

- TARGET: SYK (Homo sapiens)
- Construct: purchased Eurofins DiscoverX Corporation
- PROTOCOL NOTES: KINOMEscan competition binding screen, SYK
- Description: The KINOMEscan™ screening platform (Eurofins DiscoverX Corporation, San Diego, USA) was performed using an active site-directed competition binding assay to quantitatively measure interactions between BK40143, BK40197, BK40195, and BK40196 and more than 450 human kinases and disease relevant mutant variants. […]
Reported inhibition at 10 µM is given for each of the following molecules.
Form entry: value (%) — number only.

See these solved cases before continuing.
COc1cccc(Nc2ccnc3cc(-c4cccc(C)c4)sc23)c1
88
Cc1cccc(-c2cc3nccc(Nc4cccc(O)c4)c3s2)c1
97.7
Cc1cccc(-c2cc3nccc(N4CCOCC4)c3s2)c1
56

# input for lookup
Cc1cccc(-c2cc3nccc(Nc4ccccc4)c3s2)c1 yielded inhibition at 10 µM of 94.5

* * *

remaining binding at 10 µM reference
- TARGET: KIT (A829P) (Homo sapiens, UniProt P10721, A829P)
- Construct: purchased Eurofins DiscoverX Corporation
- PROTOCOL NOTES: KINOMEscan competition binding screen, KIT (A829P)
- EXPERIMENTAL PARAMETERS: read-out: % Ctrl @ 10 μM
Enter your answer as a number in %; do not include the unit.

# example entries with known answers
Cc1cccc(-c2cc3nccc(N4CCOCC4)c3s2)c1
100
COc1cccc(Nc2ccnc3cc(-c4cccc(C)c4)sc23)c1
6.3
Cc1cccc(-c2cc3nccc(Nc4ccccc4)c3s2)c1
52

Next compound, please.
Recorded result, Cc1cccc(-c2cc3nccc(Nc4cccc(O)c4)c3s2)c1 , remaining binding at 10 µM: 21

* * *

- TARGET: KIT autoinhibited (Homo sapiens, UniProt P10721)
- Construct: purchased Eurofins DiscoverX Corporation
- Sequence (P10721 544-976 limits assumed): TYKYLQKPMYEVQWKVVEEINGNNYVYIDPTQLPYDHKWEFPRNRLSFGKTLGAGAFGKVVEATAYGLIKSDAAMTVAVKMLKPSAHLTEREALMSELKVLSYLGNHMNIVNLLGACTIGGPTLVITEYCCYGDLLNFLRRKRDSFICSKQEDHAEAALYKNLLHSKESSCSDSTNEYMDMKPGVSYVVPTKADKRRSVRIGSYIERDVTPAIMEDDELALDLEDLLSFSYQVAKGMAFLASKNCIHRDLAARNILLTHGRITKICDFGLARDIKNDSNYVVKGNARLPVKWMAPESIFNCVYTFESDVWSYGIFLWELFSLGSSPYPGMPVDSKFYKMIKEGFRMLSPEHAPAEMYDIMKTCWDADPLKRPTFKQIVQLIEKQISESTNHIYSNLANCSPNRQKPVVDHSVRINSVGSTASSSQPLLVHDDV
- PROTOCOL NOTES: KINOMEscan competition binding screen, KIT autoinhibited
- EXPERIMENTAL PARAMETERS: read-out: % Ctrl @ 10 μM
REPORTED PROPERTY: remaining binding at 10 µM (%)
Your answer is read as %, so omit the unit and give the number.

Per the records, this compound ( Cc1cccc(-c2cc3nccc(N4CCOCC4)c3s2)c1 ) has remaining binding at 10 µM equal to 52

So, COc1cccc(Nc2ccnc3cc(-c4cccc(C)c4)sc23)c1 ? Its remaining binding at 10 µM was 22

Lookup result for Cc1cccc(-c2cc3nccc(Nc4ccccc4)c3s2)c1 ; measured remaining binding at 10 µM: 69

Looking up Cc1cccc(-c2cc3nccc(Nc4cccc(O)c4)c3s2)c1 , I see its remaining binding at 10 µM listed as 56

* * *

- TARGET: KIT (D816V) (Homo sapiens, UniProt P10721, D816V)
- Construct: purchased Eurofins DiscoverX Corporation
- PROTOCOL NOTES: KINOMEscan competition binding screen, KIT (D816V)
Listed here: items and their measured inhibition at 10 µM.

Cc1cccc(-c2cc3nccc(N4CCOCC4)c3s2)c1
33%
Cc1cccc(-c2cc3nccc(Nc4ccccc4)c3s2)c1
65%
COc1cccc(Nc2ccnc3cc(-c4cccc(C)c4)sc23)c1
98.3%

Looking up Cc1cccc(-c2cc3nccc(Nc4cccc(O)c4)c3s2)c1 , I see its inhibition at 10 µM listed as 99.8%

* * *

- TARGET: KIT (V559D, T670I) (Homo sapiens, UniProt P10721, T670I/V559D)
- Construct: purchased Eurofins DiscoverX Corporation
- Sequence (P10721 26-976 V559D/T670I): as the sequence (P10721 26-976) above, with V534D, T645I counted along it
- PROTOCOL NOTES: KINOMEscan competition binding screen, KIT (V559D, T670I)
REPORTED PROPERTY: inhibition at 10 µM (%)
Give the number; % is assumed, so skip it.

Cc1cccc(-c2cc3nccc(N4CCOCC4)c3s2)c1 [BK40197]
80

Record Cc1cccc(-c2cc3nccc(Nc4ccccc4)c3s2)c1 [BK40143] , field inhibition at 10 µM: 81

Field inhibition at 10 µM (entry COc1cccc(Nc2ccnc3cc(-c4cccc(C)c4)sc23)c1 [BK40195] ) reads 97.5

get_value(item= Cc1cccc(-c2cc3nccc(Nc4cccc(O)c4)c3s2)c1 [BK40196] , readout=inhibition at 10 µM) returns 97.6

* * *

Consider the following compounds and their measured inhibition at 10 µM readings.
- TARGET: FYN (Homo sapiens)
- Construct: purchased Eurofins DiscoverX Corporation
- Sequence (P06241 whole entry): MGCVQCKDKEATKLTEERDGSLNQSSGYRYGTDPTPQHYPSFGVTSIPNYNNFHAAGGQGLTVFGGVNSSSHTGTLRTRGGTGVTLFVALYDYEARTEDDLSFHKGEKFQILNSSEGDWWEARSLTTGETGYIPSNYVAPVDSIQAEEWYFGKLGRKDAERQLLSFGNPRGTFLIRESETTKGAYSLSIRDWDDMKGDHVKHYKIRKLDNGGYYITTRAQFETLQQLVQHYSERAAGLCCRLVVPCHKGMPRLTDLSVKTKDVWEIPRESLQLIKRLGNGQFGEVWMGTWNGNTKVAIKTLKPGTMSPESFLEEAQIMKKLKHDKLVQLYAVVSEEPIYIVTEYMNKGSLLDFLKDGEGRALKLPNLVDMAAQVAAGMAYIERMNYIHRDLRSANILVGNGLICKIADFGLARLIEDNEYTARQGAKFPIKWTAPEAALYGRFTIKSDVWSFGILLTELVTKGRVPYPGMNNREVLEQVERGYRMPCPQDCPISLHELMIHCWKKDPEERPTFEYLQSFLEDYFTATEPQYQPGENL
- PROTOCOL NOTES: KINOMEscan competition binding screen, FYN
Enter your answer as a number in %; do not include the unit.

Cc1cccc(-c2cc3nccc(Nc4ccccc4)c3s2)c1 [BK40143]
90

Looking up Cc1cccc(-c2cc3nccc(Nc4cccc(O)c4)c3s2)c1 [BK40196] , I found its inhibition at 10 µM recorded as 100

Cc1cccc(-c2cc3nccc(N4CCOCC4)c3s2)c1 [BK40197] has a reported inhibition at 10 µM of 44

Memo: COc1cccc(Nc2ccnc3cc(-c4cccc(C)c4)sc23)c1 [BK40195] , reported inhibition at 10 µM: 97.6

The measured values listed here are drawn from patent US20240423995A1.
